# assay_summary: Single dose clinical study: plasma Compound A pharmacokinetics
# Type: in vivo, human
# assay_conditions: human, plasma, po, 50 mg, plasma, healthy adults (Parts A,B), single oral 50 mg, fasted; read-out: tmax Median
quantity_name: Tmax (h)
Number only, in h; omit the unit.

### Prompt What does the data say about its Tmax? Entry: COc1ncc(C)c(-c2ccc3c(c2)[nH]c(=O)c2cnn([C@H]4CCOC4)c23)c1C
### Response 4

---

# assay_summary: Single dose clinical study: plasma Compound A pharmacokinetics
# Type: in vivo, human
# assay_conditions: human, plasma, po, 25 mg, plasma, Non-Japanese Subjects (Parts A,B), single oral 25 mg; read-out: tmax Median
quantity_name: Tmax (h)
Number only, in h; omit the unit.

### Prompt What does the data say about its Tmax? Entry: COc1ncc(C)c(-c2ccc3c(c2)[nH]c(=O)c2cnn([C@H]4CCOC4)c23)c1C
### Response 2.65

---

# assay_summary: Single dose clinical study: plasma Compound A pharmacokinetics
# Type: in vivo, human
# assay_conditions: human, plasma, oral, 400 mg, Japanese, 400 mg, with weight as covariate; read-out: Cmax Geometric LS Means Test
quantity_name: Cmax

### Prompt What does the data say about its Cmax? Entry: COc1ncc(C)c(-c2ccc3c(c2)[nH]c(=O)c2cnn([C@H]4CCOC4)c23)c1C [Compound A]
### Response 1170 ng/mL

---

# assay_summary: Multiple ascending dose study: plasma pharmacokinetics
# Assay type: in vivo
# assay_conditions: human, po, 400 mg, Day 1, 400 mg QD oral, Non-Japanese, read-out: AUC(0-24 h) GM (% CV)
# Procedure: Four sequential cohorts of healthy participants (≥50 years and ≤85 years old) were treated with multiple ascending doses of Compound A up to the maximum tolerated dose (MTD). A total of 6 participants per cohort were randomized to Compound A. Proposed doses of Compound A were: Participants received Compound A capsules, orally once daily (QD) on Days 1 to 14 after an overnight fast of at least 10 hours. Compound A was administered orally with 240 milliliter (mL) (8 fluid ounces) of water. […]
quantity_name: AUC(0-t) (ng·h/mL)
Number only, in ng·h/mL; omit the unit.

### Prompt What does the data say about its AUC(0-t)? Entry: COc1ncc(C)c(-c2ccc3c(c2)[nH]c(=O)c2cnn([C@H]4CCOC4)c23)c1C
### Response 14500

---

# assay_summary: Multiple ascending dose study: plasma pharmacokinetics
# Type: in vivo
# assay_conditions: human, po, 25 mg, Day 14, 25 mg QD oral, read-out: AUC(0-24 h) Median
# Description: Four sequential cohorts of healthy participants (≥50 years and ≤85 years old) were treated with multiple ascending doses of Compound A up to the maximum tolerated dose (MTD). A total of 6 participants per cohort were randomized to Compound A. Proposed doses of Compound A were: Participants received Compound A capsules, orally once daily (QD) on Days 1 to 14 after an overnight fast of at least 10 hours. Compound A was administered orally with 240 milliliter (mL) (8 fluid ounces) of water. […]
quantity_name: AUC(0-t) (ng·h/mL)
Number only, in ng·h/mL; omit the unit.

### Prompt What does the data say about its AUC(0-t)? Entry: COc1ncc(C)c(-c2ccc3c(c2)[nH]c(=O)c2cnn([C@H]4CCOC4)c23)c1C
### Response 4760

---

# assay_summary: Single dose clinical study: plasma Compound A pharmacokinetics
# Format: in vivo, human
# assay_conditions: human, plasma, po, 100 mg, plasma, Part B 100 mg cohort, single oral 100 mg, Fed (high-fat meal); read-out: AUC (0-24 h) GM (% CV)
quantity_name: AUC(0-t)

### Prompt What does the data say about its AUC(0-t)? Entry: COc1ncc(C)c(-c2ccc3c(c2)[nH]c(=O)c2cnn([C@H]4CCOC4)c23)c1C [Compound A]
### Response 7610 ng·h/mL

---

# assay_summary: Single dose clinical study: plasma Compound A pharmacokinetics
# Format: in vivo, human
# assay_conditions: human, plasma, po, 100 mg, plasma, Japanese Subjects (Part D), single oral 100 mg; read-out: Cmax GM (% CV)
quantity_name: Cmax (ng/mL)
Number only, in ng/mL; omit the unit.

### Prompt What does the data say about its Cmax? Entry: COc1ncc(C)c(-c2ccc3c(c2)[nH]c(=O)c2cnn([C@H]4CCOC4)c23)c1C
### Response 492

---

# assay_summary: Single dose clinical study: plasma Compound A pharmacokinetics
# Format: in vivo, human
# assay_conditions: human, plasma, po, 100 mg, plasma, Non-Japanese Subjects (Parts A,B), single oral 100 mg; read-out: Vz/F GM (% CV)
quantity_name: Vd/F (L)
Number only, in L; omit the unit.

### Prompt What does the data say about its Vd/F? Entry: COc1ncc(C)c(-c2ccc3c(c2)[nH]c(=O)c2cnn([C@H]4CCOC4)c23)c1C
### Response 268

---

# assay_summary: Single dose clinical study: plasma Compound A pharmacokinetics
# Format: in vivo, human
# assay_conditions: human, plasma, po, 400 mg, plasma, healthy adults (Parts A,B), single oral 400 mg, fasted; read-out: t1/2 Mean (converted)
quantity_name: half-life (h)
Number only, in h; omit the unit.

### Prompt What does the data say about its half-life? Entry: COc1ncc(C)c(-c2ccc3c(c2)[nH]c(=O)c2cnn([C@H]4CCOC4)c23)c1C
### Response 33.2

---

# assay_summary: Single dose clinical study Parts A and C: urine Compound A pharmacokinetics
# Format: in vivo, human
# assay_conditions: human, po, 50 mg, healthy adults Part A, single oral 50 mg
quantity_name: CL renal

### Prompt What does the data say about its CL renal? Entry: COc1ncc(C)c(-c2ccc3c(c2)[nH]c(=O)c2cnn([C@H]4CCOC4)c23)c1C
### Response 0.268 mL/min

---

# assay_summary: Single dose clinical study: plasma Compound A pharmacokinetics
# Type: in vivo, human
# assay_conditions: human, plasma, po, 25 mg, plasma, Non-Japanese Subjects (Parts A,B), single oral 25 mg; read-out: AUC(0-inf) GM
quantity_name: AUC(0-inf) (ng·h/mL)
Number only, in ng·h/mL; omit the unit.

### Prompt What does the data say about its AUC(0-inf)? Entry: COc1ncc(C)c(-c2ccc3c(c2)[nH]c(=O)c2cnn([C@H]4CCOC4)c23)c1C
### Response 4340

---

# assay_summary: Single dose clinical study: plasma Compound A pharmacokinetics
# Type: in vivo, human
# assay_conditions: human, plasma, po, 100 mg, plasma, healthy adults (Parts A,B), single oral 100 mg, fasted; read-out: AUC(0-inf) GM
quantity_name: AUC(0-inf) (ng·h/mL)
Number only, in ng·h/mL; omit the unit.

### Prompt What does the data say about its AUC(0-inf)? Entry: COc1ncc(C)c(-c2ccc3c(c2)[nH]c(=O)c2cnn([C@H]4CCOC4)c23)c1C [Compound A]
### Response 15000

---

# assay_summary: Single dose clinical study: plasma Compound A pharmacokinetics
# Type: in vivo, human
# assay_conditions: human, plasma, po, 400 mg, plasma, healthy adults (Parts A,B), single oral 400 mg, fasted; read-out: AUC(0-24 h) GM
quantity_name: AUC(0-t) (ng·h/mL)
Number only, in ng·h/mL; omit the unit.

### Prompt What does the data say about its AUC(0-t)? Entry: COc1ncc(C)c(-c2ccc3c(c2)[nH]c(=O)c2cnn([C@H]4CCOC4)c23)c1C
### Response 12500

---

# assay_summary: Single dose clinical study: plasma Compound A pharmacokinetics
# Type: in vivo, human
# assay_conditions: human, plasma, po, 100 mg, plasma, Part B 100 mg cohort, single oral 100 mg, Fasted; read-out: AUC (0-t) GM (% CV)
quantity_name: AUC(0-t) (ng·h/mL)
Number only, in ng·h/mL; omit the unit.

### Prompt What does the data say about its AUC(0-t)? Entry: COc1ncc(C)c(-c2ccc3c(c2)[nH]c(=O)c2cnn([C@H]4CCOC4)c23)c1C
### Response 14400

---

# assay_summary: Single dose clinical study: plasma Compound A pharmacokinetics
# Format: in vivo, human
# assay_conditions: human, plasma, po, 100 mg, plasma, healthy adults (Parts A,B), single oral 100 mg, fasted; read-out: Cmax GM
quantity_name: Cmax (ng/mL)
Number only, in ng/mL; omit the unit.

### Prompt What does the data say about its Cmax? Entry: COc1ncc(C)c(-c2ccc3c(c2)[nH]c(=O)c2cnn([C@H]4CCOC4)c23)c1C [Compound A]
### Response 373

---

# assay_summary: Single dose clinical study: plasma Compound A pharmacokinetics
# Type: in vivo, human
# assay_conditions: human, plasma, po, 1200 mg, plasma, healthy adults (Parts A,B), single oral 1200 mg, fasted; read-out: tmax Median
quantity_name: Tmax (h)
Number only, in h; omit the unit.

### Prompt What does the data say about its Tmax? Entry: COc1ncc(C)c(-c2ccc3c(c2)[nH]c(=O)c2cnn([C@H]4CCOC4)c23)c1C
### Response 3.02

---

# assay_summary: Single dose clinical study: plasma Compound A pharmacokinetics
# Type: in vivo, human
# assay_conditions: human, plasma, po, 100 mg, plasma, Part B 100 mg cohort, single oral 100 mg, Fed (high-fat meal); read-out: Cmax GM (%CV)
quantity_name: Cmax (ng/mL)
Number only, in ng/mL; omit the unit.

### Prompt What does the data say about its Cmax? Entry: COc1ncc(C)c(-c2ccc3c(c2)[nH]c(=O)c2cnn([C@H]4CCOC4)c23)c1C
### Response 536
